# assay remarks: FBMN analysis of short peptides in small intestine contents and serum after oral DHG
# test conditions: small intestine contents, 240 min after oral DHG, C57 mice; FBMN feature intensity, peptides smaller than 690 Da
Peptide text beside a SMILES is read from it.
readout: Peptide signal (feature intensity) in the small intestine, 240 min

CC(C)CC(N)C(=O)NC(Cc1ccccc1)C(=O)O (stereo not drawn) [Leu-Phe] (H-Leu-Phe-OH; configuration not given here)    0.00E+00

[a] CSCC[C@H](NC(=O)CN)C(=O)O
[b] NC(=O)CC[C@H](NC(=O)[C@@H](N)Cc1ccccc1)C(=O)O
## Input Sorting by Peptide signal (feature intensity) in the small intestine, 240 min in descending order, would a or b appear first? Response format: the label of the selected entry.
## Output b

----------
# assay remarks: FBMN analysis of short peptides in small intestine contents and serum after oral DHG
# test conditions: small intestine contents, 120 min after oral DHG, C57 mice; FBMN feature intensity, peptides smaller than 690 Da
Peptide text beside a SMILES is read from it.
readout: Peptide signal (feature intensity) in the small intestine, 120 min

CC[C@H](C)[C@H](N)C(=O)N[C@@H](Cc1ccc(O)cc1)C(=O)O [Ile-Tyr] (H-Ile-Tyr-OH)    0.00E+00
CC(C)C[C@H](NC(=O)[C@@H](N)Cc1ccccc1)C(=O)N[C@@H](CCCCN)C(=O)O [Phe-Leu-Lys] (H-Phe-Leu-Lys-OH)    0.00E+00
CC(C)CC(NC(=O)C(N)CO)C(=O)O (stereo not drawn) [Ser-Leu] (H-Ser-Leu-OH; configuration not given here)    0.00E+00

----------
# assay remarks: FBMN analysis of short peptides in small intestine contents and serum after oral DHG
# test conditions: small intestine contents, 60 min after oral DHG, C57 mice; FBMN feature intensity, peptides smaller than 690 Da
Peptide text beside a SMILES is read from it.
readout: Peptide signal (feature intensity) in the small intestine, 60 min

See these solved cases before continuing.
O=C1CNC(=O)C(Cc2ccccc2)N1 (stereo not drawn)    0.00E+00
CSCC[C@H](NC(=O)[C@@H](N)Cc1c[nH]c2ccccc12)C(=O)O [Trp-Met] (H-Trp-Met-OH)    0.00E+00
N[C@@H](Cc1c[nH]c2ccccc12)C(=O)NCC(=O)O [Trp-gly] (H-Trp-Gly-OH)    0.00E+00
CC(C)CC(NC(=O)C(N)Cc1ccccc1)C(=O)O (stereo not drawn) [Phe-Leu] (H-Phe-Leu-OH; configuration not given here)    2.44E+06
CC(C)CC(NC(=O)C(N)C(C)C)C(=O)O (stereo not drawn) [Val-Leu] (H-Val-Leu-OH; configuration not given here)    3.78E+06

[P] NC(Cc1ccccc1)C(=O)NC(Cc1ccc(O)cc1)C(=O)O (stereo not drawn) [Phe-Tyr] (H-Phe-Tyr-OH; configuration not given here)
[Q] N[C@@H](Cc1cnc[nH]1)C(=O)N[C@@H](Cc1c[nH]c2ccccc12)C(=O)O
[R] CC(C)C[C@H](NC(=O)[C@@H](N)CC(=O)O)C(=O)O [Asp-Leu] (H-Asp-Leu-OH)
[S] N[C@@H](Cc1cnc[nH]1)C(=O)N1CCC[C@H]1C(=O)O
[T] C[C@@H](O)[C@H](NC(=O)[C@@H](N)Cc1ccccc1)C(=O)O
## Input Hey, quick one: sort these by Peptide signal (feature intensity) in the small intestine, 60 min, low to high? Provide your answer as the labels ordered per the instruction.
## Output Q, T, P, R, S
